test system: Inhibin beta A chain (activin A); assay: INHBA (activin A) binders on microarrays, primary screen, biochemical, small-molecule microarray, 635 nm fluorescence scan (AID 1107); settings: small-molecule microarray binding, higher = more signal;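 note: mouse activin A protein probed at 4.33 µg/mL on printed slides; score merges bound-protein fluorescence near 667 nm with spot signal-to-noise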
I'd appreciate it if you could supply composite z-score values for the items below.
Give bare numbers.

Known composite z-score results, listed for orientation:
CCCNC(=O)[C@@H]1c2ccccc2C(=O)N(Cc2ccccc2)[C@H]1c1ccc(CO)cc1	-0.217
O=C1O[C@H](c2ccccc2)[C@H](c2ccccc2)N2[C@H]1[C@@H](C(=O)NC[C@H](O)c1ccccc1)[C@]1(C(=O)Nc3ccc(C#CCCO)cc31)[C@H]2c1ccc(O)cc1	0.644
O=C1OCCC=C[C@H]2OC34C=CCN(Cc5ccccc5)C(=O)[C@H]3N(CCCCCO)C(=O)[C@@H]4C12 (stereo partly drawn)	0.141
CCCCCCc1nc(CCCc2cc3c(c(CCCCCC)n2)[Si](C(C)C)(C(C)C)OC3)cc2c1[Si](C(C)C)(C(C)C)OC2	1.49
CC(C)(C)OC(=O)CC[C@@]1(C(=O)O)N=C(c2ccc(OCCCO)cc2)O[C@@H]1c1ccccc1N=[N+]=[N-]	1.33
COCCCNC(=O)[C@@]1(C)c2ccccc2C(=O)N(Cc2cc(C(F)(F)F)cc(C(F)(F)F)c2)[C@H]1c1ccc(CO)cc1	-0.754
NCCCCCCNC(=O)[C@H]1C[C@H]2C(=O)NCC(=O)N2[C@H]1c1cccc(OCCO)c1	-0.0745
CC(C)c1ccc(NN2C(C(O)c3cccc(O)c3)C=CC3C(=O)N(c4ccccc4)C(=O)C32)cc1 (stereo not drawn)	-0.251
CCN(CC)c1ccc(N2CC=CC34O[C@@H]5/C=C\CCCOC(=O)C5[C@H]3C(=O)N(C(CO)C(C)C)[C@@H]4C2=O)cc1 (stereo partly drawn)	1.11
CC(c1ccccc1)C(O)C1C=CC2C(=O)NC(=O)C2N1Nc1ccccn1 (stereo not drawn)	1.41

Below is a list of compounds. For each, state its recorded composite z-score.
1. COC(=O)[C@@]1(Cc2ccccc2)N=C(c2ccc(OCCCO)cc2)O[C@H]1c1ccccc1N=[N+]=[N-]
2. C=CC(=C)C1=CCO[C@@H]1[C@H]1CCCN1S(=O)(=O)c1ccccc1[N+](=O)[O-]
3. C=CCNC(=O)[C@@H]1[C@H]2C(=O)O[C@H](c3ccccc3)[C@H](c3ccccc3)N2[C@H](c2ccc(OCCO)cc2)[C@@]12C(=O)Nc1ccccc12

Response given:
1.23
1.27
0.344

###

assay: binders of probe aFGF2 on microarray, primary screen, stem cell growth factor project, biochemical, small-molecule microarray, fluorescence 635/667 (AID 1067); conditions: higher = more signal;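 note: measures binding of biotinylated aFGF2 protein to printed compounds on slides; z-score merges feature fluorescence and signal-to-noise across triplicate slides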
For each of the compounds below, state its composite z-score.
Give bare numbers.

Example entries and their recorded answers appear below.
O=C1O[C@@H](c2ccccc2)[C@@H](c2ccccc2)N2[C@@H](c3ccc(O)cc3)[C@]3(C(=O)Nc4ccc(C#CC5=CCCCC5)cc43)[C@@H](C(=O)O)[C@H]12	-0.0908
O=C1[C@]2(CO)C=C(Br)[C@@H](C[C@@H]2c2ccccc2)[C@@]12CO2	-0.0507
CCOC(=O)C1=CC[C@@H](c2ccccc2)N(S(=O)(=O)c2ccc(C)cc2)[C@H]1C(=O)OCC	0.338
O=C1O[C@H](c2ccccc2)[C@H](c2ccccc2)N2[C@H]1[C@@H](C(=O)NC[C@H](O)c1ccccc1)[C@]1(C(=O)Nc3ccc(C#CCCO)cc31)[C@H]2c1ccc(O)cc1	-0.103

Please state, for each entry, its recorded composite z-score.
1. COc1ccc([Si](C)(C)[C@H]2[C@H](CC(=O)N(CCO)Cc3ccccc3)O[C@@]3(C(=O)N(Cc4cccc(N5CCC5=O)c4)c4ccccc43)[C@@H]2C)cc1
2. C=CCC(OC(C)=O)[C@@H]1[C@@H](N(Cc2ccc(-c3ccccc3)cc2)C(=O)Cc2ccc(F)cc2)c2cc(OCCCO)ccc2N1C(=O)c1ccc2ccccc2n1 (stereo partly specified)
3. CC(C)Cc1ccc(CN2CC[C@@H](NS(=O)(=O)c3ccccc3)C2)cc1
4. CN(C)CCCCNC(=O)[C@H]1C[C@H]2C(=O)N[C@@H](Cc3ccccc3)C(=O)N2[C@H]1c1ccc(O)cc1
5. O=C1C2C=CC(C(O)c3ccc(B(O)O)cc3)N(Nc3ccccc3)C2C(=O)N1c1ccccc1 (stereo unspecified)
6. O=C(NCc1ccccc1)[C@]1(CCS(=O)(=O)c2ccccc2)N=C(c2ccc(OCCCO)cc2)O[C@@H]1c1ccccc1

Response given:
-0.131
0.0198
-0.192
-0.0805
0.0533
0.0485

Challenge: Given the compound Cc1ccccc1C(O)C1C=CC2C(=O)N(C)C(=O)C2N1Nc1ccccc1 (stereo unspecified) , write its reported composite z-score.
Response given: -0.0035
